Tested on: Escherichia coli TOP10;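 note: peptides expressed intracellularly from a pBAD plasmid library in pooled LB shake-flask culture, induced with 0.3% L-arabinose, DNA abundance read by NGS, three biological replicates, DESeq2 with apeglm shrinkage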
PROTOCOL_NOTES: shrunken log2 fold change of peptide-encoding DNA abundance (4.5 h post-induction vs induction); higher = less antimicrobial activity (less host growth inhibition)
ASSAY_CONTEXT: time post-induction: 4.5 h; library: site-saturation at positions 5, 18, 19, 20

| ITEM_SEQUENCE | shrunken log2 fold change |
| --- | --- |
| RRIRHRPPRLPRPRPRPYPDPRP | 0.0372 |
| RRIRIRPPRLPRPRPRPKEYPRP | -0.728 |
| RRIRVRPPRLPRPRPRPNCNPRP | -0.273 |
| RRIRSRPPRLPRPRPRPAIMPRP | -0.152 |
| RRIRFRPPRLPRPRPRPKENPRP | -0.222 |
| RRIRMRPPRLPRPRPRPMCSPRP | -0.00161 |
| RRIRIRPPRLPRPRPRPGIDPRP | -0.00862 |
| RRIRDRPPRLPRPRPRPTPPPRP | 0.49 |
| RRIRLRPPRLPRPRPRPRIVPRP | -0.175 |
| RRIRIRPPRLPRPRPRPIISPRP | -0.101 |
| RRIRPRPPRLPRPRPRPPEHPRP | 0.0484 |
| RRIRCRPPRLPRPRPRPQTFPRP | -0.139 |
| RRIRWRPPRLPRPRPRPVCQPRP | -0.0154 |
| RRIRVRPPRLPRPRPRPCLIPRP | -0.641 |
| RRIRTRPPRLPRPRPRPFAEPRP | 0.0116 |
| RRIRVRPPRLPRPRPRPIWDPRP | 0.0206 |
| RRIRLRPPRLPRPRPRPQTQPRP | 0.0159 |
| RRIRYRPPRLPRPRPRPWSAPRP | -0.237 |
| RRIRPRPPRLPRPRPRPMNQPRP | 0.00354 |
| RRIRIRPPRLPRPRPRPVSEPRP | -0.164 |
| RRIRTRPPRLPRPRPRPSWQPRP | -0.073 |
| RRIRCRPPRLPRPRPRPPHRPRP | 0.854 |
| RRIRLRPPRLPRPRPRPTTDPRP | -0.287 |
| RRIRYRPPRLPRPRPRPAMEPRP | 0.0738 |
| RRIRCRPPRLPRPRPRPRMPPRP | 0.187 |
| RRIRVRPPRLPRPRPRPLISPRP | -0.0293 |
| RRIRFRPPRLPRPRPRPKRHPRP | 0.134 |
| RRIRGRPPRLPRPRPRPAFQPRP | 0.202 |
| RRIRIRPPRLPRPRPRPWDNPRP | -0.339 |
| RRIRFRPPRLPRPRPRPGYEPRP | -0.16 |
| RRIRNRPPRLPRPRPRPLTEPRP | 0.284 |
| RRIRPRPPRLPRPRPRPQYKPRP | -0.129 |
| RRIRLRPPRLPRPRPRPEMFPRP | -0.00904 |
| RRIRMRPPRLPRPRPRPMAFPRP | 0.102 |
| RRIRPRPPRLPRPRPRPRQIPRP | -0.0965 |
| RRIRVRPPRLPRPRPRPCFSPRP | -0.356 |
| RRIRSRPPRLPRPRPRPLCWPRP | 0.131 |
| RRIRKRPPRLPRPRPRPHGSPRP | -0.0695 |
| RRIRKRPPRLPRPRPRPSKSPRP | -0.141 |
| RRIRDRPPRLPRPRPRPQYTPRP | -0.31 |
| RRIRQRPPRLPRPRPRPLNFPRP | -0.233 |
| RRIRMRPPRLPRPRPRPRSPPRP | 0.921 |
| RRIRWRPPRLPRPRPRPHHYPRP | -0.952 |
| RRIRDRPPRLPRPRPRPLVLPRP | 0.176 |
| RRIRVRPPRLPRPRPRPVYCPRP | -0.482 |
| RRIRTRPPRLPRPRPRPQCMPRP | -0.133 |
| RRIRKRPPRLPRPRPRPEGSPRP | 0.102 |
| RRIRMRPPRLPRPRPRPFPAPRP | 0.426 |
| RRIRMRPPRLPRPRPRPAPWPRP | 0.807 |
| RRIRMRPPRLPRPRPRPDFEPRP | 0.589 |
| RRIRPRPPRLPRPRPRPIDAPRP | 0.159 |
| RRIRHRPPRLPRPRPRPENDPRP | 0.00527 |
| RRIRDRPPRLPRPRPRPPWAPRP | 0.311 |
| RRIRARPPRLPRPRPRPRYYPRP | -0.116 |
| RRIRVRPPRLPRPRPRPCKAPRP | 0.033 |
| RRIRYRPPRLPRPRPRPFVRPRP | 0.00599 |
| RRIRSRPPRLPRPRPRPFMNPRP | -0.147 |
| RRIRERPPRLPRPRPRPRSSPRP | 0.116 |
| RRIRSRPPRLPRPRPRPWAMPRP | 0.0981 |
| RRIRDRPPRLPRPRPRPFTLPRP | -0.0329 |
| RRIRSRPPRLPRPRPRPYNNPRP | -0.785 |
| RRIRTRPPRLPRPRPRPQWRPRP | 0.207 |
| RRIRKRPPRLPRPRPRPYIMPRP | -0.153 |

Values compiled from the supplement of paper PMC9112550.
